tested on: SNB-19 CNS; experiment: NCI tumour cell line growth inhibition, 48 h
Assay Endpoint: TGI

> print(dat)
                                   compound  assay.endpoint     result
1           O=Cc1[nH]c(=O)[nH]c(=O)c1C(=O)O             TGI   > 100 µM
2  CNCC#Cc1c(F)ccc2c1/C(=C/c1[nH]ccc1OC)C(=O)N2             TGI    2.89 µM
3                O=C(c1ccccc1)c1cc2ccccc2o1             TGI   > 100 µM
4  COC(=O)C(Cc1c[nH]c2ccccc12)NP(=O)(O)OCC1OC(n2cc(I)c(=O)[nH]c2=O)CC1O (centres undefined)             TGI   > 100 µM
5  Cc1nn(-c2ccccc2)c2c1C(c1ccc(Cl)cc1)NC(=S)N2 (centres undefined)             TGI   > 100 µM
6      Fc1cc(-c2cc(-c3ccccc3)no2)c(Cl)cc1Cl             TGI  > 62.5 µM
7  COc1ccc(CC2NCCc3c2[nH]c2ccccc32)cc1 (centres undefined)             TGI   > 100 µM
8  NCCNc1c2c(c(NCCN)c3[nH]ccc13)C(=O)c1ccccc1C2=O             TGI    1.12 µM
9  Cn1cc(-c2csc(-c3c[nH]c4ccc(F)cc34)n2)c2cnccc21             TGI    3.52 µM
